ASSAY_NAME: Selectivity index, ratio of IC50 for rat L6 cells to IC50 for Trypanosoma brucei rhodesiense STIB900
Format: toxicity, cell-based
RECORDED_CONDITIONS: read-out: Ratio IC50
# Lookup of reported selectivity ratio keyed by entry

MOLECULE_SMILES | selectivity ratio
CCN(CC)c1ccc2nc3c4ccccc4/c(=N\c4ccc([N+](=O)[O-])cc4C#N)cc-3oc2c1 | 0.42
CCN(CC)c1ccc2nc3c4ccccc4/c(=N\c4cccc(OC)c4)cc-3oc2c1 | 3.52
CCN(CC)c1ccc2nc3c4ccccc4/c(=N\c4ccc([N+](=O)[O-])cc4Cl)cc-3oc2c1 | 0.08
CCN(CC)c1ccc2nc3c4ccccc4/c(=N\c4ccc(C)cc4)cc-3oc2c1 | 3.71
CCN(CC)c1ccc2nc3c4ccccc4/c(=N\c4ccc(OC)cc4)cc-3oc2c1 | 3.84

Data provenance: ChEMBL document CHEMBL1833875
